Kindly state phenotypically active for each of the entries shown.
tested on: A549-TP53BP1-CLTA; experiment: phenotypically active (imaging signature differs from DMSO and reproducible) at any of 0.3-9 uM (binary (1 = active, 0 = inactive)); higher = active; details: treatment time: 24 h
Structures can show the parent of a compound that is named as a salt.

Give phenotypically active for all compounds that follow.
1. CO[C@H](C)[C@](O)(C(=O)OCC1=CCN2CC[C@H](O)[C@@H]12)C(C)C
2. CC[C@@H]1C=CC=CC[C@H](C)[C@@H](O)[C@](C)(O)C(=O)[C@H](C)[C@@H](O)[C@H](C)C(=O)[C@H](C)[C@@H](O)[C@H](C)C=CC(=O)O[C@H]2[C@@H](C)[C@@H](CC1)O[C@@]1(CC[C@@H](C)[C@@H](C[C@H](C)O)O1)[C@@H]2C
3. CC[C@H]1CN2CC[C@H]1C[C@@H]2[C@@H](O)c1ccnc2ccc(OC)cc12 [Hydroquinidine HCl]
4. CCn1cnc2c(Nc3cccc(Cl)c3)nc(N[C@H]3CCCC[C@H]3N)nc21

1: 0 (inactive); 2: 1 (active); 3: 0 (inactive); 4: 1 (active)

Give phenotypically active for all compounds that follow.
1. C/C=C(/C)C(=O)O[C@H]1CC[C@@]2(C)[C@@H]3CC[C@H]4[C@]5(O)C[C@H](O)[C@@]6(O)[C@@H](CN7C[C@@H](C)CC[C@H]7[C@@]6(C)O)[C@]5(O)C[C@@]42O[C@]13O
2. C[C@@]1(CO)[C@H](O)CC[C@@]2(C)[C@H]1CC[C@H]1C[C@@H]3C[C@@]12CC[C@]3(O)CO

1. 0 (inactive)
2. 1 (active)

----------
system: A549-GM130-SQSTM1; assay: phenotypically active (imaging signature differs from DMSO and reproducible) at any of 0.3-9 uM (binary (1 = active, 0 = inactive)); higher = active; settings: treatment time: 24 h
Where a name gives a salt, the structure may show the parent alone.
Your response should consist of one outcome taken from active, inactive

compound="CCC(=O)C(CC(C)N(C)C)(c1ccccc1)c1ccccc1 (stereo not given) [methadone]" label=inactive
compound="CC[C@@H](C(=O)[C@@H](C)[C@@H](O)[C@H](C)[C@@H]1O[C@@H]([C@@H](CC)C(=O)O)CC[C@@H]1C)[C@H]1O[C@]2(C=C[C@@H](O)[C@]3(CC[C@@](C)([C@H]4CC[C@](O)(CC)[C@H](C)O4)O3)O2)[C@H](C)C[C@@H]1C [Salinomycin Sodium]" label=active
compound="CC(C)N(CCC(C(N)=O)(c1ccccc1)c1ccccn1)C(C)C (stereo not given) [disopyramide]" label=inactive
compound="CN1C(CC(O)c2ccccc2)CCCC1CC(O)c1ccccc1 (stereo not given) [Lobelanidine hydrochloride]" label=inactive
compound=N[C@@H]1C[C@H]1c1cc(F)cc(F)c1OCc1ccccc1 label=inactive
compound="COC[C@H]1OC(=O)c2coc3c2[C@@]1(C)C1=C(C3=O)[C@@H]2CCC(=O)[C@@]2(C)C[C@H]1OC(C)=O [wortmannin]" label=active

GET /call?item= COc1cc2c(cc1O)C[C@H]1c3c(cc(O)c(OC)c3-2)CCN1C [Boldine] returns the recorded outcome of this test. active

GET /call?item= C/C=C(/C)C(=O)O[C@H]1CC[C@@]2(C)[C@@H]3CC[C@H]4[C@]5(O)C[C@H](O)[C@@]6(O)[C@@H](CN7C[C@@H](C)CC[C@H]7[C@@]6(C)O)[C@]5(O)C[C@@]42O[C@]13O [Veratrine] returns the recorded outcome of this test. inactive

GET /call?item= CC[C@H]1CN2CC[C@H]1C[C@@H]2[C@@H](O)c1ccnc2ccc(OC)cc12 [Hydroquinidine HCl] returns the recorded outcome of this test. inactive

GET /call?item= C[C@@H]1CN([C@H]2CC[C@](C#N)(c3ccc(F)cc3)CC2)CC[C@]1(C(=O)O)c1ccccc1 [levocabastine] returns the recorded outcome of this test. inactive

GET /call?item= CNC(=O)Oc1ccc2c(c1)[C@]1(C)CCN(C)[C@@H]1N2C [Eserine sulfate, physostigmine sulfate] returns the recorded outcome of this test. inactive

GET /call?item= C[C@H]1O[C@@H](O[C@H]2[C@@H](O)C[C@H](O[C@H]3[C@@H](O)C[C@H](O[C@H]4CC[C@@]5(C)[C@H](CC[C@@H]6[C@@H]5CC[C@]5(C)[C@@H](C7=CC(=O)OC7)[C@@H](O)C[C@]65O)C4)O[C@@H]3C)O[C@@H]2C)C[C@H](O)[C@@H]1O [Gitoxin] returns the recorded outcome of this test. active

GET /call?item= Cc1nnc2n1-c1ccc(Cl)cc1C(c1ccccc1)=NC2 [alprazolam] returns the recorded outcome of this test. inactive

GET /call?item= CN1CCc2cc3c(cc2[C@H]1[C@@H]1OC(=O)c2c1ccc1c2OCO1)OCO3 [bicuculine] returns the recorded outcome of this test. inactive

GET /call?item= N#CC(O[C@@H]1O[C@H](CO[C@@H]2O[C@H](CO)[C@@H](O)[C@H](O)[C@H]2O)[C@@H](O)[C@H](O)[C@H]1O)c1ccccc1 (stereo not given in full) [Amygdalin] returns the recorded outcome of this test. inactive

GET /call?item= O[C@H]1[C@H](O)[C@@H](O)CN2CC[C@H](O)[C@H]12 [Castanospermine] returns the recorded outcome of this test. inactive

GET /call?item= CCCN1CCC[C@@H]2Cc3n[nH]cc3C[C@H]21 [(-)-Quinpirole hydrochloride] returns the recorded outcome of this test. inactive

GET /call?item= CC[C@H]1CN2CCc3cc(OC)c(OC)cc3[C@@H]2C[C@@H]1C[C@H]1NCCc2cc(OC)c(OC)cc21 [emetine] returns the recorded outcome of this test. active

GET /call?item= C=C1[C@@H](O)C2C=CC[C@H](C)C(=O)[C@](C)(O)C=C[C@@H](OC(C)=O)[C@]23C(=O)N[C@H](Cc2ccccc2)[C@@H]3[C@@H]1C (stereo not given in full) [Cytochalasin D] returns the recorded outcome of this test. active

GET /call?item= CC[C@@H](CO)NC(=O)[C@@H]1C=C2c3cccc4c3c(cn4C)C[C@H]2N(C)C1 [methysergide] returns the recorded outcome of this test. active
